target: mAPXmEGFP (Glycine max, UniProt Q43758, K14D/E112K); construct: monomeric K14D/E112K APX fused to mEGFP reporter; N-terminal His tag, pLEICS-45; pea, Pisum sativum, possible; assay: time-correlated single-photon counting fluorescence lifetime titration of apo protein, […] binding model; conditions: 37 °C, 10 mM potassium phosphate pH 7, 1 uM protein
Sequence (Q43758 1-250 K14D/E112K): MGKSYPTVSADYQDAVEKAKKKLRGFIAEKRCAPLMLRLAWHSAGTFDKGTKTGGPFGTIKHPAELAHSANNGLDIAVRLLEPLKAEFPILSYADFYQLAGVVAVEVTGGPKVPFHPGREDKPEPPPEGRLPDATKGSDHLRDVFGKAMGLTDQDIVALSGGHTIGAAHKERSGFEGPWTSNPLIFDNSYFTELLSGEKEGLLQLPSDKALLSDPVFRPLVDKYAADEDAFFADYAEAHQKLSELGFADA
pKd: −log10 of the molar value.
experimentalEndpoint: pKd

INSERT INTO measurements (givensmiles, studytarget, quantitativereadout) VALUES
  ('C=CC1=C(C)C2=Cc3c(C=C)c(C)c4[n]3[Fe]([Cl])[n]3c(c(C)c(CCC(=O)O)c3=CC3=NC(=C4)C(C)=C3CCC(=O)O)=CC1=N2', 'mAPXmEGFP (Glycine max, UniProt Q43758, K14D/E112K)', 7.66);
